# test system: GPR139 (Homo sapiens, UniProt Q6DWJ6)
# Sequence (Q6DWJ6 whole entry): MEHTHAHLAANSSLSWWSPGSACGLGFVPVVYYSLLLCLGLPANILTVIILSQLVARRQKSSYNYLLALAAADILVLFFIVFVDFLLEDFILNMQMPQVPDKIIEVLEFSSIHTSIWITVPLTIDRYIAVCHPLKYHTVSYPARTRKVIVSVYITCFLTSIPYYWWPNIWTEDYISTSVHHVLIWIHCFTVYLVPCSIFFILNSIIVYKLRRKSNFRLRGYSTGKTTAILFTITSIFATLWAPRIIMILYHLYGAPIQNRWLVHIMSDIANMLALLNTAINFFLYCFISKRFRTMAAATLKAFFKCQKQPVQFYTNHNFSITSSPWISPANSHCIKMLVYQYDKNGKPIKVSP
# method: GPR139 Agonist titration / agonist counterscreen assay (calcium detection, HEK-GPR139 cells)
# Type: cell-based
# Design: expressed in transfected cells; host or cells: HEK Aequorin cells, Maxcyte transient transfection
# setup conditions: agonist counterscreen of the antagonists; scientific notation, molarity; read-out: GRP139 Agonist activity EC50
pEC50: −log10 of the molar value.
Measured pEC50, listed per entry for reference.

>  <compound>
CCN1C(=O)c2cccc3c(S(=O)(=O)Nc4cccc(F)c4)ccc1c23

>  <pEC50>
< 4.85

$$$$
>  <compound>
COc1ccc(-c2cccc(NS(=O)(=O)c3ccc(I)cc3)c2)nn1

>  <pEC50>
< 4.85

$$$$
>  <compound>
CCCc1sc(N2CCN(C(=O)c3ccccc3)CC2)nc1-c1ccccc1

>  <pEC50>
< 4.93

$$$$
>  <compound>
COc1ccc(C2=NN(C3CCCCCC3)C(=O)[C@@H]3CC=CC[C@@H]23)cc1OCCCCOc1ccc(-c2nn[nH]n2)cc1

>  <pEC50>
4.88

$$$$
>  <compound>
O=C(NCCCN1CCCC1=O)c1ccc(NCc2ccc(F)cc2)c(S(=O)(=O)Nc2cccc(C(F)(F)F)c2)c1

>  <pEC50>
< 4.86

$$$$
>  <compound>
COc1cccc(OC)c1C(=O)Oc1ccc2c(=O)c(-c3ccc(Cl)cc3)c(C(F)(F)F)oc2c1

>  <pEC50>
< 4.98

$$$$
>  <compound>
CC1=NN(Cc2ccc(Cl)cc2Cl)C(=O)C1

>  <pEC50>
< 4.82

$$$$
>  <compound>
Nc1cccc(C(=O)Nc2cc(O)n(-c3c(Cl)cc(Cl)cc3Cl)n2)c1

>  <pEC50>
< 4.83

$$$$
>  <compound>
Cc1cccc(-n2cc(-c3ccccc3)nc2SCC(=O)Nc2ccccc2C)c1

>  <pEC50>
< 4.88

$$$$
>  <compound>
CCOC(=O)c1ccc2nc(C)c3c(c2c1)OC(C(C)(Cl)Br)C3 (centres unmarked)

>  <pEC50>
< 4.85

$$$$
>  <compound>
CCc1ccccc1NC(=O)CSc1nnc(-c2ccccc2)c(-c2ccccc2)n1

>  <pEC50>
< 4.92

$$$$
>  <compound>
O=C(CCCC(=O)OCC(Cl)=C(Cl)Cl)Nc1ccccc1F

>  <pEC50>
< 4.85

$$$$
>  <compound>
Cc1ccc(-n2cc(-c3ccccc3)nc2SCC(=O)Nc2ccccc2)cc1

>  <pEC50>
< 4.88

$$$$
>  <compound>
COc1ccccc1-n1cc(-c2ccccc2)nc1SCC(=O)Nc1cccc(C)c1C

>  <pEC50>
< 4.88

$$$$
>  <compound>
O=c1c(-c2ccc(Cl)cc2)c(C(F)(F)F)oc2cc(O)ccc12

>  <pEC50>
5.04

$$$$
>  <compound>
CCCOC(=O)c1ccc(NC(=O)CSc2ccccc2)cc1

>  <pEC50>
< 4.85

$$$$
>  <compound>
Cc1cc(I)ccc1NC(=O)CSc1cccs1

>  <pEC50>
< 4.85

$$$$

###

# Tested on: parental HEK cells
# method: HEK parental Agonist Counterscreen Assay (non-transfected cells)
# Format: cell-based
# setup conditions: HEK Agonist Activity section

>  <compound>
O=C(CN1C(=O)NC2(CCc3ccccc32)C1=O)Nc1cccc(Cl)c1 (stereo not shown)

>  <Lipophilic Efficiency (logP)>
2.03

$$$$
>  <compound>
CCOC(=O)c1cccc(NC(=O)Cc2cccc3ccccc23)c1

>  <Lipophilic Efficiency (logP)>
0.46

$$$$
>  <compound>
COc1ccc2cc(CCNC(=O)/C=C\c3ccc4c(c3)OCO4)c(=O)[nH]c2c1

>  <Lipophilic Efficiency (logP)>
2.31

$$$$
>  <compound>
C=C1C(CC(=C)C2Cc3ccc4ccccc4c3C2)=CC(c2ccccc2)=CC1C (stereo not shown)

>  <Lipophilic Efficiency (logP)>
2.62

$$$$
